Data origin, for the record: paper PMC11995216

- Tested on: PAMPA
- appliedConditions: Papp (x 10^-6 cm/s) – ELSD Detection / [row 22]; ELSD Detection
readoutLabel: Papp (×10⁻⁶ cm/s)
Give the number; ×10⁻⁶ cm/s is assumed, so skip it.

Item: CCCCC[C@@H]1OC(=O)[C@@H](C)N(C)C(=O)[C@H](CCCCC)OC(=O)[C@@H](C)N(C)C(=O)[C@H](CCCCC)OC(=O)[C@@H](C)N(C)C(=O)[C@H](CCCCC)OC(=O)[C@@H](C)N(C)C1=O [Compound C1.4, ent-verticilide] | Papp: 7.56

====

- System: PAMPA
- appliedConditions: Papp (x 10^-6 cm/s) – ELSD Detection / [row 10]; ELSD Detection
readoutLabel: Papp (×10⁻⁶ cm/s)
Report the figure in ×10⁻⁶ cm/s without appending any unit label.

[
  {
    "molecule": "CCCCC[C@@H]1OC(=O)[C@@H](C)N(C)C(=O)[C@H](CCCCC)OC(=O)[C@@H](C)N(C)C(=O)[C@H](CCCCC)OC(=O)[C@@H](C)N(C)C(=O)[C@H](CCCCC)OC(=O)[C@@H](C)N(C)C(=O)[C@H](CCCCC)OC(=O)[C@@H](C)N(C)C(=O)[C@H](CCCCC)OC(=O)[C@@H](C)N(C)C1=O",
    "testedSystem": "PAMPA",
    "Papp [×10⁻⁶ cm/s]": 1.92
  },
  {
    "molecule": "CCCCC[C@@H]1OC(=O)[C@@H](C)N(C)C(=O)[C@H](CCCCC)OC(=O)[C@@H](C)N(C)C(=O)[C@H](CCCCC)OC(=O)[C@@H](C)N(C)C(=O)[C@H](CCCCC)OC(=O)[C@@H](C)N(C)C1=O [Compound C1.4, ent-verticilide]",
    "testedSystem": "PAMPA",
    "Papp [×10⁻⁶ cm/s]": 4.63
  },
  {
    "molecule": "CCCCC[C@@H]1OC(=O)[C@@H](C)N(C)C1=O",
    "testedSystem": "PAMPA",
    "Papp [×10⁻⁶ cm/s]": 13.6
  },
  {
    "molecule": "CCCCC[C@@H]1OC(=O)[C@@H](C)N(C)C(=O)[C@H](CCCCC)OC(=O)[C@@H](C)N(C)C(=O)[C@H](CCCCC)OC(=O)[C@@H](C)N(C)C(=O)[C@H](CCCCC)OC(=O)[C@@H](C)N(C)C(=O)[C@H](CCCCC)OC(=O)[C@@H](C)N(C)C1=O",
    "testedSystem": "PAMPA",
    "Papp [×10⁻⁶ cm/s]": 3.08
  },
  {
    "molecule": "CCCCC[C@@H]1OC(=O)[C@@H](C)N(C)C(=O)[C@H](CCCCC)OC(=O)[C@@H](C)N(C)C(=O)[C@H](CCCCC)OC(=O)[C@@H](C)N(C)C1=O [Compound C1.3, ent-verticilide B1]",
    "testedSystem": "PAMPA",
    "Papp [×10⁻⁶ cm/s]": 4.39
  }
]

Quick note, Papp for CCCCC[C@@H]1OC(=O)[C@@H](C)N(C)C(=O)[C@H](CCCCC)OC(=O)[C@@H](C)N(C)C1=O landed at 4.89

====

molecules and their reported Papp
- Tested on: PAMPA
- appliedConditions: Papp (x 10^-6 cm/s) / [row 4]; UV detection
Starred links: 1 amine or outer side, 2 acyl side, 3 side chain; linkers in the order of their positions; H or OH if unused. Non-standard residues stand in square brackets, D forms with d. Residues, ends and D or L forms follow the SMILES beside them. *: point of attachment. X2 = CCCCC[C@H](O*)C(=O)OCc1ccccc1; X1 = CCCCC[C@H](O[*:1])C(=O)[*:2]; Ahp(2) = CCCCC[C@H](N)C(=O)O; dNMeA = CN[C@H](C)C(=O)O; Boc = CC(C)(C)OC(=O)*; OBn = c1ccc(CO*)cc1
# output: bare number, implied unit ×10⁻⁶ cm/s

Below, 2 molecules whose answers are already recorded.
[
  {
    "molecule": "CCCCC[C@H](NC(=O)[C@@H](C)N(C)C(=O)OC(C)(C)C)C(=O)N(C)[C@H](C)C(=O)O[C@@H](CCCCC)C(=O)N(C)[C@H](C)C(=O)O[C@@H](CCCCC)C(=O)N(C)[C@H](C)C(=O)O[C@@H](CCCCC)C(=O)OCc1ccccc1 [Compound L2.1] (Boc-[dNMeA][Ahp(2)][dNMeA][X1][dNMeA][X1][dNMeA]-X2)",
    "testedSystem": "PAMPA",
    "Papp, ×10⁻⁶ cm/s": 4.55
  },
  {
    "molecule": "CCCCC[C@H](NC(=O)[C@@H](C)N(C)C(=O)[C@H](CCCCC)OC(=O)[C@@H](C)N(C)C(=O)[C@H](CCCCC)NC(=O)[C@@H](C)N(C)C(=O)[C@H](CCCCC)OC(=O)[C@@H](C)N(C)C(=O)OC(C)(C)C)C(=O)OCc1ccccc1 [Compound L2.3] (Boc-[dNMeA][X1][dNMeA][Ahp(2)][dNMeA][X1][dNMeA][Ahp(2)]-OBn)",
    "testedSystem": "PAMPA",
    "Papp, ×10⁻⁶ cm/s": 3.52
  }
]

Continue with the molecule presented below.
The reported PAMPA Papp of CCCCC[C@H](NC(=O)[C@@H](C)N(C)C(=O)OC(C)(C)C)C(=O)N(C)[C@H](C)C(=O)N[C@H](CCCCC)C(=O)N(C)[C@H](C)C(=O)O[C@@H](CCCCC)C(=O)N(C)[C@H](C)C(=O)O[C@@H](CCCCC)C(=O)OCc1ccccc1 (stereo in doubt) is 2.91
